Assay: Toxicity of compounds for uninfected MT-2 cells (MTT assay)
Conditions: human, uninfected MT-2 T-lymphocytes
measure: viability at 24 h, 0.01 µM (%)
Answers are plain numbers, in %.

# get_value(readout='viability at 24 h, 0.01 µM', item= `O=C1Nc2ccc(Cl)cc2[C@@](C#CC2CC2)(C(F)(F)F)O1` )
81

----------
Test: in vitro
Conditions: human
measure: viability at 24 h, 0.1 µM (%)
Numbers only, in %.

# get_value(readout='viability at 24 h, 0.1 µM', item= COc1cc([C@@H]2c3cc4c(cc3[C@@H](O[C@@H]3O[C@@H]5CO[C@@H](C)O[C@H]5[C@H](O)[C@H]3O)[C@H]3COC(=O)[C@H]23)OCO4)cc(OC)c1O [etoposide] )
71
